- Test system: S. aureus ATCC-29213
- assay-summary: MIC, broth microdilution, S. aureus ATCC-29213
- Type: cell-based
- Design: unit not given beside the values
- reported-conditions: S. aureus ATCC-29213, Gram +ve; pH 3; 18 to 24 hours
recorded-metric: MIC
Please give the numeric answer without any surrounding text.

In the examples that follow, each entry is paired with its recorded MIC.
[[record]]
record_smiles = "CCCCOP(=O)(O)OC[C@H]1O[C@@H](n2ccc(N(C)C)nc2=O)[C@H](OC)[C@@H]1O"
recorded_metric = "MIC"
assay_value = 3.13

[[record]]
record_smiles = "CCCCOP(=O)(O)OC[C@H]1O[C@@H](n2ccc(N)nc2=O)C(F)(F)[C@@H]1O"
recorded_metric = "MIC"
assay_value = 1.56

[[record]]
record_smiles = "CCCCOP(=O)(O)OC[C@H]1O[C@@H](n2ccc(N(C)C)nc2=O)C(F)(F)[C@@H]1O"
recorded_metric = "MIC"
assay_value = 1.56

[[record]]
record_smiles = "CCCCOP(=O)(O)OC[C@H]1O[C@@H](n2ccc(N(C)C)nc2=O)C[C@@H]1O"
recorded_metric = "MIC"
assay_value = 1.56


So the reported MIC for CCCCOP(=O)(O)OC[C@@H]1CC[C@H](n2ccc(N)nc2=O)O1 , on S. aureus ATCC-29213, turned out to be 6.25

----------
Catalogue of MIC readings, one per entry.
- System: H. influenzae ATCC-49247
- assay-summary: MIC, broth microdilution, H. influenzae ATCC-49247
- Assay type: cell-based
- Design: unit not given beside the values
- reported-conditions: H. influenzae ATCC-49247, Gram −ve; pH 3; 18 to 24 hours

In the examples that follow, each entry is paired with its recorded MIC.
[[record]]
record_smiles = "CCCCOP(=O)(O)OC[C@H]1O[C@@H](n2ccc(N(C)C)nc2=O)[C@H](OC)[C@@H]1O"
recorded_metric = "MIC"
assay_value = 0.39

[[record]]
record_smiles = "CCCCOP(=O)(O)OC[C@H]1O[C@@H](n2ccc(N)nc2=O)C(F)(F)[C@@H]1O"
recorded_metric = "MIC"
assay_value = 0.78

[[record]]
record_smiles = "CCCCOP(=O)(O)OC[C@H]1O[C@@H](n2ccc(N(C)C)nc2=O)C(F)(F)[C@@H]1O"
recorded_metric = "MIC"
assay_value = 0.39

[[record]]
record_smiles = "CCCCOP(=O)(O)OC[C@H]1O[C@@H](n2ccc(N(C)C)nc2=O)C[C@@H]1O"
recorded_metric = "MIC"
assay_value = 0.78


Read the next record carefully.
Value of MIC reported for the molecule CCCCOP(=O)(O)OC[C@@H]1CC[C@H](n2ccc(N)nc2=O)O1 is 1.56

----------
Catalogue of MIC readings, one per entry.
- Test system: A. radioresistens MMX-8551
- assay-summary: MIC, broth microdilution, A. radioresistens MMX-8551
- Format: cell-based
- Set-up: unit not given beside the values
- reported-conditions: A. radioresistens MMX-8551, Gram −ve; pH 3; 18 to 24 hours
Please give the numeric answer without any surrounding text.

[[record]]
compound = "CCCCOP(=O)(O)OC[C@H]1O[C@@H](n2ccc(N(C)C)nc2=O)[C@H](OC)[C@@H]1O [LAK-021]"
assay_value = 1.56

[[record]]
compound = "CCCCOP(=O)(O)OC[C@H]1O[C@@H](n2ccc(N(C)C)nc2=O)C[C@@H]1O [LAI-008]"
assay_value = 12.50

[[record]]
compound = "CCCCOP(=O)(O)OC[C@@H]1CC[C@H](n2ccc(N)nc2=O)O1 [LAI-007]"
assay_value = 6.25

[[record]]
compound = "CCCCOP(=O)(O)OC[C@H]1O[C@@H](n2ccc(N(C)C)nc2=O)C(F)(F)[C@@H]1O [LAK-023]"
assay_value = 0.78


Read the next record carefully.
Value of MIC reported for the compound CCCCOP(=O)(O)OC[C@H]1O[C@@H](n2ccc(N)nc2=O)C(F)(F)[C@@H]1O [LAI-006] is 0.39

----------
- Test system: E. faecalis MMX-3353
- assay-summary: MIC, broth microdilution, E. faecalis MMX-3353
- Assay type: cell-based
- reported-conditions: E. faecalis MMX-3353, Gram +ve; pH 3; 18 to 24 hours
Catalogue of MIC readings, one per entry.
Please give the numeric answer without any surrounding text.

In the examples that follow, each entry is paired with its recorded MIC.
[[record]]
record_smiles = "CCCCOP(=O)(O)OC[C@H]1O[C@@H](n2ccc(N)nc2=O)C(F)(F)[C@@H]1O"
assayed_target = "E. faecalis MMX-3353"
recorded_metric = "MIC"
assay_value = 3.13

[[record]]
record_smiles = "CCCCOP(=O)(O)OC[C@H]1O[C@@H](n2ccc(N(C)C)nc2=O)C[C@@H]1O"
assayed_target = "E. faecalis MMX-3353"
recorded_metric = "MIC"
assay_value = 6.25

[[record]]
record_smiles = "CCCCOP(=O)(O)OC[C@@H]1CC[C@H](n2ccc(N)nc2=O)O1"
assayed_target = "E. faecalis MMX-3353"
recorded_metric = "MIC"
assay_value = 6.25

[[record]]
record_smiles = "CCCCOP(=O)(O)OC[C@H]1O[C@@H](n2ccc(N(C)C)nc2=O)[C@H](OC)[C@@H]1O"
assayed_target = "E. faecalis MMX-3353"
recorded_metric = "MIC"
assay_value = 3.13


Value of MIC reported for the compound CCCCOP(=O)(O)OC[C@H]1O[C@@H](n2ccc(N(C)C)nc2=O)C(F)(F)[C@@H]1O is 6.25

----------
- Tested on: Pseudomonas aeruginosa (27853)
- assay-summary: MIC, broth microdilution, Pseudomonas aeruginosa (27853)
- Assay type: cell-based
- reported-conditions: pH 3, Mueller Hinton Broth, 18 to 24 hours, read-out: MIC
recorded-metric: MIC (µg/mL)
Supply the numeric figure in µg/mL, leaving out any unit text.

In the examples that follow, each entry is paired with its recorded MIC.
[[record]]
record_smiles = "CCCCOP(=O)(O)OC[C@@H]1CC[C@H](n2ccc(N)nc2=O)O1"
recorded_metric = "MIC"
assay_value = 5000

[[record]]
record_smiles = "CC(C)COP(=O)(O)OC[C@H]1O[C@@H](n2ccc(N)nc2=O)C[C@@H]1O"
recorded_metric = "MIC"
assay_value = 20000

[[record]]
record_smiles = "Nc1ccn([C@H]2C[C@H](O)[C@@H](COP(=O)(O)OCCCC(F)(F)F)O2)c(=O)n1"
recorded_metric = "MIC"
assay_value = 25000

[[record]]
record_smiles = "CCCCCCOP(=O)(O)OC[C@H]1O[C@@H](n2ccc(N)nc2=O)C[C@@H]1O"
recorded_metric = "MIC"
assay_value = 5000


Value of MIC reported for the compound CCCCOP(=O)(O)OC[C@H]1O[C@@H](n2ccc(N(C)C)nc2=O)C(F)(F)[C@@H]1O is 400

Value of MIC reported for the compound CC(C)CCOP(=O)(O)OC[C@H]1O[C@@H](n2ccc(N)nc2=O)C[C@@H]1O is 5000

Value of MIC reported for the compound CCCCCCCCOP(=O)(O)OC[C@H]1O[C@@H](n2ccc(N)nc2=O)C[C@@H]1O is 20000

Value of MIC reported for the compound CCCCOP(=O)(O)OC[C@H]1O[C@@H](n2ccc(N)nc2=O)C(F)(F)[C@@H]1O is 800

Value of MIC reported for the compound CCCCOP(=O)(O)OC[C@H]1O[C@@H](n2ccc(N(C)C)nc2=O)[C@H](OC)[C@@H]1O is 800

Value of MIC reported for the compound CCCCOP(=O)(O)OC[C@H]1O[C@@H](n2ccc(NC)nc2=O)C[C@@H]1O is 5000

Value of MIC reported for the compound CCCCOP(=O)(O)OC[C@H]1O[C@@H](n2ccc(N(C)C)nc2=O)C[C@@H]1O is 5000

----------
- Tested on: P. mirabilis CDC-0155
- assay-summary: MIC, broth microdilution, P. mirabilis CDC-0155
- Assay type: cell-based
- Design: unit not given beside the values
- reported-conditions: P. mirabilis CDC-0155, Gram −ve; pH 3; 18 to 24 hours
recorded-metric: MIC

[[record]]
molecule = "CCCCOP(=O)(O)OC[C@@H]1CC[C@H](n2ccc(N)nc2=O)O1 [LAI-007]"
assay_value = 3.13

[[record]]
molecule = "CCCCOP(=O)(O)OC[C@H]1O[C@@H](n2ccc(N(C)C)nc2=O)[C@H](OC)[C@@H]1O [LAK-021]"
assay_value = 1.56

[[record]]
molecule = "CCCCOP(=O)(O)OC[C@H]1O[C@@H](n2ccc(N(C)C)nc2=O)C(F)(F)[C@@H]1O [LAK-023]"
assay_value = 1.56


Value of MIC reported for the molecule CCCCOP(=O)(O)OC[C@H]1O[C@@H](n2ccc(N)nc2=O)C(F)(F)[C@@H]1O [LAI-006] is 3.13

Value of MIC reported for the molecule CCCCOP(=O)(O)OC[C@H]1O[C@@H](n2ccc(N(C)C)nc2=O)C[C@@H]1O [LAI-008] is 3.13
